- protocol: MultiTox-Fluor Cytotoxicity Assay - LYMP1-002 - Dead Cells (AID 960); further: nearly all actives have a fitted effect of over 60% in size
- run-conditions: LYMP1-002 lymphoblastoid cells, dead-cell protease fluorescence; series mostly up to 46.1 µM
- From the text: NIH Chemical Genomics Center [NCGC] NIH Molecular Libraries Screening Centers Network [MLSCN] National Institutes of Environmental Health Sciences [NIEHS] National Toxicology Program [NTP] We have developed a 1536-well cell-based assay for quantitative high throughput screening (qHTS) against a number of cell lines to determine in vitro cytotoxicity of small molecules. […] 8. Detection; dead-cell fluorescence (Ex/Em=485/520); EnVision plate reader […]
Inconclusive results are not listed. The source made the active and inactive calls. The call rests on the fitted dose curve; in most records, active means well fitted cell-killing curve with a large enough effect; inconclusive means small, poorly fitted or top-dose-only effect, or effect the other way; inactive means no such curve, though single readings can be large or run the other way.
Outcome codes: y = active, n = inactive

> print(dat)
                                    compound  class.name
 1  Clc1ccc(C(c2ccccc2Cl)C(Cl)Cl)cc1 (stereo not drawn)           n
 2       Nc1ccn([C@H]2CC[C@@H](CO)O2)c(=O)n1           n
 3                   Nc1c2c(nc3ccccc13)CCCC2           n
 4  CC(C)NCC(O)c1ccc(O)c(O)c1 (stereo not drawn)           n
 5  COc1ccc(CCN(C)CCCC(C#N)(c2ccc(OC)c(OC)c2)C(C)C)cc1OC (stereo not drawn)           n
 6                   O=c1[nH]cc(F)c(=O)[nH]1           n
 7                CCC1(c2ccccc2)C(=O)NCNC1=O           n
 8  COc1cc2c(c(OC)c1OC)-c1ccc(OC)c(=O)cc1[C@@H](NC(C)=O)CC2           y
 9             COc1ccc2[nH]cc(CCNC(C)=O)c2c1           n
10  COc1ccc2c(c1)c(CC(=O)O)c(C)n2C(=O)c1ccc(Cl)cc1           n
11  CC(COc1ccccc1)N(CCCl)Cc1ccccc1 (stereo not drawn)           n
12                             NCCS(=O)(=O)O           n
13  Cc1cn([C@H]2C=C[C@@H](CO)O2)c(=O)[nH]c1=O           n

The measured values listed here are drawn from PubChem BioAssay (NCATS).
